Value source: BindingDB's records for patent US11590142

target: DNA gyrase (Escherichia coli, UniProt P0AES4+P0AES6); experiment: Enzyme Inhibition Assay
Readout Name: IC50
In your response, put the unit directly after the numeric value.

Input line: Supply IC50 value. Item: Cn1c(=O)ccc2ncc(OCCNC[C@H]3CN(c4ccc5c(n4)NC(=O)CO5)C(=O)O3)nc21
Output line: 32 nM

Input line: Supply IC50 value. Item: Cn1c(=O)cnc2ccc(OCCNC[C@H]3CN(c4ccc5c(n4)NC(=O)CO5)C(=O)O3)nc21
Output line: 47 nM
